The measured values listed here are drawn from patent US11312712B2.

Molecular target: GluA1o-γ8 (GRIA1o-CACNG8 fusion construct) (Homo sapiens (Human), UniProt P42261+Q8WXS5)
Sequence (P42261 other isoform, or with tags, fused parts or gaps): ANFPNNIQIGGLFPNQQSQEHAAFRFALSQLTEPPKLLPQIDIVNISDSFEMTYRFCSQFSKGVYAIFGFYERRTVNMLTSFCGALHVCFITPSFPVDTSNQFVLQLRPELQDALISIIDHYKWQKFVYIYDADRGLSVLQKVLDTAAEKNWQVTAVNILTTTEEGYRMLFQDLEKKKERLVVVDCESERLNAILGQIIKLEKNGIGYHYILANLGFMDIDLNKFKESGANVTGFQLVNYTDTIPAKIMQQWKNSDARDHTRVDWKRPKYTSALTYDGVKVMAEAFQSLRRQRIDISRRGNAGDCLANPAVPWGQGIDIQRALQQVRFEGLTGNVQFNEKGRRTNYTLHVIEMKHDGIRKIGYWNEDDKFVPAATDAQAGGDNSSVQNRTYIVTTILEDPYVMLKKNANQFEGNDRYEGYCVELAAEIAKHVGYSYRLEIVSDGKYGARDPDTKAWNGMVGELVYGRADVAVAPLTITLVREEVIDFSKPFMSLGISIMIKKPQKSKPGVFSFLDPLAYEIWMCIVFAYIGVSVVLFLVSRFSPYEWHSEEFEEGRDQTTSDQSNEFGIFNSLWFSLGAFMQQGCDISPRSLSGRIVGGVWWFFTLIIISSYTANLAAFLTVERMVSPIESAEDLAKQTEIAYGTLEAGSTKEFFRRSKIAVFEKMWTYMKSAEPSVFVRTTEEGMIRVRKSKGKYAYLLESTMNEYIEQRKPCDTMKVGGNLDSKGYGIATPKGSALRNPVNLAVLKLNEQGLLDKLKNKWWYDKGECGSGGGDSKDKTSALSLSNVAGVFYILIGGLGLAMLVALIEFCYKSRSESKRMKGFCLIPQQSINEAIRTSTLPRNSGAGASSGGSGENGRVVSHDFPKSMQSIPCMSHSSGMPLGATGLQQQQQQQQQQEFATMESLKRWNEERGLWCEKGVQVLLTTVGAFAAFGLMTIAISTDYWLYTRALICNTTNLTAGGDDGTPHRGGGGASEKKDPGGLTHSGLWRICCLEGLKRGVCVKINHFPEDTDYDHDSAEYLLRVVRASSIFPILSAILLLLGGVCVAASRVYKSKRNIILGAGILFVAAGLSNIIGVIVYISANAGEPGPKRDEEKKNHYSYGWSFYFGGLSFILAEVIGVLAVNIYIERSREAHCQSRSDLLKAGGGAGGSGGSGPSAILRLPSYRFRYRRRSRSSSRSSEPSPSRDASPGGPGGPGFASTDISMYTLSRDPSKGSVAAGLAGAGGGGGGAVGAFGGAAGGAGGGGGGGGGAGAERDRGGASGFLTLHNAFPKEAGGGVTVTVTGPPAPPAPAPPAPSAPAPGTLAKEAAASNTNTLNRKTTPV
Experiment: Calcium flux assay (FLIPR), inhibition of TARP γ8 dependent AMPA receptor activity
Conditions: GluA1o-γ8 (GRIA1o-CACNG8 fusion) in HEK293 cells, calcium flux after 15 μM glutamate
recordedMetric: log10 IC50 (log10 of the value in nM)
Scale: log10; quantity: IC50; unit before log: nM

Previously resolved entries follow.
compound="CC(C)NC(=O)c1nc2ccc(C(F)(F)F)nc2n1-c1ccc2[nH]ncc2c1 [Example 172]" valuereported=3.60
compound="O=C1Cc2cc(-n3c(C4CCC4)nc4ccc(C(F)(F)F)nc43)ccc2N1 [Example 49]" valuereported=-0.50
compound="CCc1ccc2nc(C(F)(F)F)n(-c3ccc4[nH]ncc4c3)c2n1 [Example 193]" valuereported=0.20
compound="O=C1Cc2cc(-n3c(C4CC4)nc4ccc(C(F)F)nc43)ccc2N1 [Example 140]" valuereported=0.40
compound="O=c1[nH]c2ccc(-n3c(-c4ccccc4)nc4ccc(C(F)(F)F)nc43)cc2s1 [Example 14]" valuereported=-0.80
compound="FC(F)(F)c1ccc2nc(C(F)(F)F)n(-c3cc(Cl)c4cn[nH]c4c3)c2n1 [Example 265]" valuereported=2.10

Next compound, log10 IC50 to be filled in.
Q: Record CC(C)c1cc2ccc(C(F)(F)F)nc2n1-c1ccc2[nH]ncc2c1 [Example 335] : what is its log10 IC50 with GluA1o-γ8 (GRIA1o-CACNG8 fusion construct) (Homo sapiens (Human), UniProt P42261+Q8WXS5)?
A: -1.80

====

Listed here are molecules together with their documented pIC50.
Molecular target: GluA1o-γ8 (GRIA1o-CACNG8 fusion construct) (Homo sapiens (Human), UniProt P42261+Q8WXS5)
Experiment: Calcium flux assay (FLIPR), inhibition of TARP γ8 dependent AMPA receptor activity
Details: GluA1o-γ8 (GRIA1o-CACNG8 fusion) in HEK293 cells, calcium flux after 15 μM glutamate
API: returns pIC50 as number; meaning -log10 of concentration in mol/L.

compound=OCc1cc2ccc(C(F)(F)F)nc2n1-c1ccc2[nH]ncc2c1 recordedmetric=pIC50 valuereported=7.60
compound=CCOc1nc2ccc(C(F)(F)F)nc2n1-c1ccc2[nH]nc(F)c2c1 recordedmetric=pIC50 valuereported=7.60
compound=O=C1Cc2cc(-n3c(C4CCCC4)nc4ccc(C(F)(F)F)nc43)ccc2N1 recordedmetric=pIC50 valuereported=8.70
compound=COc1nc2ccc(C(F)(F)F)nc2n1-c1ccc2c(c1)CC(=O)N2 recordedmetric=pIC50 valuereported=7.40

Could you now look at the following molecule, please?
Q: Can you share its pIC50? I mean this molecule: `Cc1ccc2nc(C3CC3)n(-c3ccc4c(c3)CC(=O)N4)c2n1`
A: 7.10

====

Molecular target: GluA1o-γ8 (GRIA1o-CACNG8 fusion construct) (Homo sapiens (Human), UniProt P42261+Q8WXS5)
Experiment: Calcium flux assay (FLIPR), inhibition of TARP γ8 dependent AMPA receptor activity
Format: cell-based
Details: GluA1o-γ8 (GRIA1o-CACNG8 fusion) in HEK293 cells, calcium flux after 15 μM glutamate
Just a reminder that ties go to no (0): only IC50 strictly below 8 nM counts as yes (1).

Please review the entries below; each comes with its answer.
molecule=O=C1Nc2ccc(-n3c(-c4ccnc(F)c4)nc4ccc(C(F)(F)F)nc43)cc2C1=O assignedlabel="no (0)"
molecule=Cn1c(=O)sc2cc(-n3c(C4CCC4)nc4ccc(C(F)(F)F)nc43)ccc21 assignedlabel="no (0)"
molecule=CC(C)(C)c1nc2ccc(C(F)(F)F)nc2n1-c1ccc2[nH]c(=O)sc2c1 assignedlabel="yes (1)"
molecule="C[C@H](F)c1nc2ccc(C(F)(F)F)nc2n1-c1cc(Cl)c2[nH]ncc2c1 (single isomer, unassigned)" assignedlabel="yes (1)"

Q: In plain terms, does `COc1ccc2nc(-c3ccc(F)cc3)n(-c3ccc4c(c3)CC(=O)N4)c2n1` come in under 8 nM for IC50?
A: no (0)

Q: Now the molecule `O=C1Cc2cc(-n3c(C(F)(F)F)nc4ccc(C(F)F)nc43)cc(F)c2N1`
A: yes (1)

Q: Next entry: `CC(C)(C)c1ccc2nc(C(F)(F)F)n(-c3ccc4[nH]ncc4c3)c2n1`
A: yes (1)

Q: # iterate: `CC(C)(C)c1nc2ccc(C(F)(F)F)nc2n1-c1ccc2[nH]c(=O)oc2c1`
A: no (0)

Q: Follow-up item: `Cc1cc2ccc(C(F)(F)F)nc2n1-c1ccc2[nH]c(=O)sc2c1`
A: yes (1)

Q: # iterate: `Fc1ccc(-c2cc3ccc(C(F)(F)F)nc3n2-c2ccc3[nH]ccc3c2)cc1`
A: yes (1)

Q: What do you have for `CC(C)c1nc2ccc(C(F)(F)F)nc2n1-c1cnc2[nH]ccc2c1` ?
A: no (0)

Q: Another molecule to look at: `FC(F)c1nc2ccc(C(F)(F)F)nc2n1-c1cc(Cl)c2[nH]ncc2c1`
A: yes (1)

Q: Repeat with `Cc1cc(O)c2nc(-c3ccc(F)cc3)n(-c3ccc4[nH]c(=O)sc4c3)c2n1`
A: no (0)

Q: Can you handle `Cc1cc(-n2c(C(F)(F)F)nc3cccnc32)cc2cn[nH]c12` next?
A: no (0)

====

Biological target: GluA1o-γ8 (GRIA1o-CACNG8 fusion construct) (Homo sapiens (Human), UniProt P42261+Q8WXS5)
Experiment: Calcium flux assay (FLIPR), inhibition of TARP γ8 dependent AMPA receptor activity
Settings: GluA1o-γ8 (GRIA1o-CACNG8 fusion) in HEK293 cells, calcium flux after 15 μM glutamate
pIC50: −log10 of the molar value.
Please enter met where pIC50 is greater than or equal to 8, and not met where it is lower.

Worked set:
molecule="Cc1cc(Cl)nc2c1nc(C1CCC1)n2-c1ccc2[nH]ncc2c1 [Example 137]" testedon="GluA1o-γ8 (GRIA1o-CACNG8 fusion construct) (Homo sapiens (Human), UniProt P42261+Q8WXS5)" assignedlabel=met
molecule="O=C1Cc2cc(-n3c(C4CCOCC4)nc4ccc(C(F)(F)F)nc43)ccc2N1 [Example 50]" testedon="GluA1o-γ8 (GRIA1o-CACNG8 fusion construct) (Homo sapiens (Human), UniProt P42261+Q8WXS5)" assignedlabel="not met"
molecule="O=c1[nH]c2ccc(-n3c(-c4ccc(C(F)F)cc4)nc4cccnc43)cc2s1 [Example 68]" testedon="GluA1o-γ8 (GRIA1o-CACNG8 fusion construct) (Homo sapiens (Human), UniProt P42261+Q8WXS5)" assignedlabel="not met"

Q: Please tell me: is the molecule CCNc1nc2ccc(C(F)(F)F)nc2n1-c1ccc2[nH]ncc2c1 [Example 130] at or over 8 in terms of pIC50?
A: not met

Q: Try this molecule next: Cc1cc(-n2c(C(C)C)nc3ccc(C(F)(F)F)nc32)cc2cn[nH]c12 [Example 198]
A: met

====

Entries annotated with measured IC50
Target: GluA1o-γ8 (GRIA1o-CACNG8 fusion construct) (Homo sapiens (Human), UniProt P42261+Q8WXS5)
Experiment: Calcium flux assay (FLIPR), inhibition of TARP γ8 dependent AMPA receptor activity
Details: GluA1o-γ8 (GRIA1o-CACNG8 fusion) in HEK293 cells, calcium flux after 15 μM glutamate
Note: state the figure and append the unit.

Some compounds with recorded IC50:
compound=Cc1ccc2nc(C(F)(F)F)n(-c3ccc4[nH]c(=O)sc4c3)c2n1 recordedmetric=IC50 valuereported="1.58 nM"
compound=CCOc1nc2ccc(C(F)(F)F)nc2n1-c1ccc2[nH]c(=O)sc2c1 recordedmetric=IC50 valuereported="1 nM"
compound=CC(C)c1nc2ccc(C(F)(F)F)nc2n1-c1ccc2c(c1)CC(=O)N2 recordedmetric=IC50 valuereported="1 nM"
compound=O=C1Cc2cc(-n3c(-c4ccc(F)cc4)nc4ccc(C(F)(F)F)nc43)ccc2N1 recordedmetric=IC50 valuereported="0.631 nM"

Okay, now this compound:
Q: Name the reported IC50 value associated with the compound `Cc1ccc2cc(C3CC3)n(-c3ccc4c(c3)CC(=O)N4)c2n1`
A: 1 nM

====

Target: GluA1o-γ8 (GRIA1o-CACNG8 fusion construct) (Homo sapiens (Human), UniProt P42261+Q8WXS5)
Test: Calcium flux assay (FLIPR), inhibition of TARP γ8 dependent AMPA receptor activity
Conditions: GluA1o-γ8 (GRIA1o-CACNG8 fusion) in HEK293 cells, calcium flux after 15 μM glutamate
log10(IC50) reference
Please note: log10 values; quantity IC50; unit nM.

compound=Cc1cc2ccc(C(F)(F)F)nc2n1-c1ccc2[nH]ccc2c1 recordedmetric=log10(IC50) valuereported=1.40
compound=Cc1ccc2nc([C@H]3C[C@H](F)C3)n(-c3cc(Cl)c4[nH]ncc4c3)c2n1 recordedmetric=log10(IC50) valuereported=-0.30
compound=Cc1ccc2nc(C3CC3)n(-c3ccc4[nH]ncc4c3)c2n1 recordedmetric=log10(IC50) valuereported=1.00
compound=Cc1cc2cccnc2n1-c1cc(F)c2c(c1)CC(=O)N2 recordedmetric=log10(IC50) valuereported=2.30
compound=O=C1Cc2cc(-n3c(C(F)F)nc4ccc(C(F)(F)F)nc43)cc(F)c2N1 recordedmetric=log10(IC50) valuereported=0.80
compound=Cc1ccnc2c1nc(C(F)(F)F)n2-c1cc(C)c2[nH]ncc2c1 recordedmetric=log10(IC50) valuereported=0.70

Q: State the recorded log10(IC50) for this entry: `Cc1ccc2nc(C3CCC3)n(-c3ccc4c(c3)CC(=O)N4)c2n1`
A: 1.20

Q: Next up: `CC(C)(C)c1nc2ccc(C(F)(F)F)nc2n1-c1ccc2c(c1)CC(=O)N2`
A: 1.10

Q: Continue with `Fc1ccc(-c2nc3ccc(C(F)(F)F)nc3n2-c2ccc3[nH]ncc3c2)cc1`
A: -0.50
